System: Mus musculus
Assay: Neurotoxicity in Mus musculus (mouse) assessed as increase in immobility time at 30 mg/kg, ip administered 30 min before test measured for 5 min by forced swimming test
Assay type: toxicity, organism-based
Design: dose 30 mg/kg, route intraperitoneal
Conditions: in vivo
Rule: Activity below 30% gives true (1). Equal to or above 30% gives false (0).

[
  {
    "molecule": "CN(C)c1ccc(C2C(Cl)C(=O)N2NC(=O)c2ccncc2)cc1 (stereo unspecified)",
    "assigned_class": "false (0)"
  },
  {
    "molecule": "O=C(NN1C(=O)C(Cl)C1c1ccccc1)c1ccncc1 (stereo unspecified)",
    "assigned_class": "true (1)"
  },
  {
    "molecule": "COc1ccc(C2C(Cl)C(=O)N2NC(=O)c2ccncc2)cc1OC (stereo unspecified)",
    "assigned_class": "false (0)"
  },
  {
    "molecule": "Cc1ccc(C2C(Cl)C(=O)N2NC(=O)c2ccncc2)cc1 (stereo unspecified)",
    "assigned_class": "true (1)"
  },
  {
    "molecule": "O=C(NN1C(=O)C(Cl)C1c1ccc(Cl)cc1)c1ccncc1 (stereo unspecified)",
    "assigned_class": "false (0)"
  }
]
